- TARGET_UNDER_TEST: PIP4K 2A (Homo sapiens)
- Sequence (P48426 whole entry, species assumed): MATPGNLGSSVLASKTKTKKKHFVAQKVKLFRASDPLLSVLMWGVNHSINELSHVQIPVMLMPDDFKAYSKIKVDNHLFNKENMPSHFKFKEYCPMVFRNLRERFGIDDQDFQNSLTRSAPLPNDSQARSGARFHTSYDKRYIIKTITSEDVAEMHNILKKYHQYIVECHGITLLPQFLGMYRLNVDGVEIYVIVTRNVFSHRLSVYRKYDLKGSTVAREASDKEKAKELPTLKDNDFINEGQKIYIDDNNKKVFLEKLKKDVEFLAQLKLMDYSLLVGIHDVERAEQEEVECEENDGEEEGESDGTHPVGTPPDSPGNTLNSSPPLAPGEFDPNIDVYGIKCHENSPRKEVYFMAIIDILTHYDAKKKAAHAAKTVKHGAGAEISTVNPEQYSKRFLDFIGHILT
- METHOD_NOTES: Kinase Assay PIP4K2 A (PIP4KtypeIIA inhibition assay)
- Assay type: biochemical
- Set-up: made in house; host or cells: E. coli
- CONDITION_SUMMARY: compounds listed under IC50 bin headings
- Description: GST tagged PIP4KtypeIIA and B enzymes were overexpressed in E. Coli and purified to >80% homogeneity. […] After 1 hr, the reaction was quenched by adding 25 uL of ADP Glo reagent. […] The luminescence was read using Molecular Devices Paradigm plate reader. […] IC50 was calculated by plotting the residual activity (expressed as % No inhibitor control) vs. log [Inh. conc.]
OBSERVED_PROPERTY: IC50

Use the examples below as a reference point.
Query :: Query (compound): CC1Oc2cc(N3CCCC3=O)ccc2-c2cnc(Nc3cncc(S(C)(=O)=O)c3)cc21 (stereo not shown) [Example 91] ; field requested: IC50
Result :: 10 to 100 nM

Query :: Repeat for the following compound: CC1(C)Oc2cc(N3CCCC3=O)c(F)cc2-c2cnc(Nc3cncc(N4CCNC4=O)c3)cc21 [Example 149]
Result :: ≤ 1 nM

Query :: And then O=C1CCCN1c1ccc2c(c1)OC1(COC1)c1cc(Nc3cnc4c(c3)N3C(=O)CC[C@H]3CO4)ncc1-2 [Example 194] , what is it?
Result :: 1 to 10 nM

Query :: And then COc1ncc(Nc2cc3c(cn2)-c2ccc(N4CCCC4=O)cc2OC3C)cc1NS(C)(=O)=O (stereo not shown) [Example 88] , what is it?
Result :: 1 to 10 nM

Query :: Moving on to the next compound: COC(=O)N1CCOc2ncc(Nc3cc4c(cn3)-c3ccc(N5CCCC5=O)cc3OC4)cc21 [Example 77]
Result :: ≤ 1 nM

Others:
Query :: What does the record list as IC50 for CC1Oc2cc(N3CCCC3=O)ccc2-c2cnc(Nc3cncc(N4CCN(C)C4=O)c3)cc21 (stereo not shown) [Example 53] ?
Result :: ≤ 1 nM

Query :: Next entry: COC(=O)N1CCOc2ncc(Nc3cc4c(cn3)-c3ccc(C(=O)N(C)C)cc3OC4C)cc21 (stereo not shown) [Example 69]
Result :: ≤ 1 nM

Query :: Quick one: CC1Oc2cc(N3CCCC3=O)ccc2-c2cnc(Nc3cnc4c(c3)OCCO4)cc21 (stereo not shown) [Example 62]
Result :: ≤ 1 nM

Query :: Next up: CC1Oc2cc(C(=O)N(C)C)ccc2-c2cnc(Nc3cnc4c(c3)N(C(=O)C(C)(C)C)CCO4)cc21 (stereo not shown) [Example 67]
Result :: ≤ 1 nM

Query :: Also need CC1Oc2cc(N3CCCC3=O)ccc2-c2cnc(Nc3cnc4c(c3)NC(=O)CO4)cc21 (stereo not shown) [Example 93] , thanks.
Result :: 1 to 10 nM

Query :: Also CC1Oc2cc(N3CCCC3=O)ccc2-c2cnc(Nc3cnc4c(c3)NCCO4)cc21 (stereo not shown) [Example 94] , if possible.
Result :: 1 to 10 nM

Query :: Check CC1(C)Oc2cc(N3CCCC3=O)ccc2-c2cnc(Nc3cnc4c(c3)OCCO4)cc21 [Example 164] too.
Result :: ≤ 1 nM

Query :: Consider next the compound CC(O)C(=O)N1CCOc2ncc(Nc3cc4c(cn3)-c3ccc(N5CCCC5=O)cc3OC4C)cc21 (stereo not shown) [Example 60] in the same way.
Result :: ≤ 1 nM

Query :: Thanks! And Cc1conc1-c1ccc2c(c1)OC(C)(C)c1cc(Nc3cnc4c(c3)N3C(=O)CC[C@H]3CO4)ncc1-2 [Example 209] ?
Result :: ≤ 1 nM

Query :: Same lookup for CC1(C)Oc2cc(N3CCCC3=O)ccc2-c2cnc(Nc3cnc4c(c3)N3C(=O)CC[C@H]3CO4)cc21 [Example 73] , please.
Result :: ≤ 1 nM

Query :: What do you have for CN(C)C(=O)c1ccc2c(c1)OC(C1CC1)c1cc(Nc3cccnc3)ncc1-2 (stereo not shown) [Example 34] ?
Result :: 1 to 10 nM
